Kindly state logP for each of the entries shown.
Answers are plain numbers.

The following molecules have reported results that may help.
{"Molecule": "O=C(CN1CCCCC1)NC1COc2ccc(Cl)cc21 (stereo not drawn)", "Measurement": 3.01}
{"Molecule": "COc1ccc2c(c1)OCC2NC(=O)CN1CCCCC1 (stereo not drawn)", "Measurement": 2.41}
{"Molecule": "CCCCN(CCCC)CC(=O)NC1COc2ccc(Cl)cc21 (stereo not drawn)", "Measurement": 4.44}
{"Molecule": "O=C(CN1CCOCC1)NC1COc2ccccc21 (stereo not drawn)", "Measurement": 0.81}
{"Molecule": "CCCCN(CCCC)CC(=O)NC1COc2ccccc21 (stereo not drawn)", "Measurement": 4.15}
{"Molecule": "CCN(CC)CC(=O)NC1COc2ccc(Cl)cc21 (stereo not drawn)", "Measurement": 2.88}
{"Molecule": "O=C(CN1CCCCC1)NC1COc2ccccc21 (stereo not drawn)", "Measurement": 2.3}
{"Molecule": "O=C(CN1CCOCC1)NC1COc2ccc(Cl)cc21 (stereo not drawn)", "Measurement": 1.55}

Respectfully, I request logP for each entry included below.
1. Cc1ccc2c(c1)C(NC(=O)CN1CCOCC1)CO2 (stereo not drawn)
2. Cc1ccc2c(c1)C(NC(=O)CN1CCCC1)CO2 (stereo not drawn)
3. CCCCN(CCCC)CC(=O)NC1COc2ccc(C)cc21 (stereo not drawn)
4. CCN(CC)CC(=O)NC1COc2ccccc21 (stereo not drawn)

Ans:
1.38
2.24
4.43
2.2

---

Rule: logP below 2 gives 1.0. Equal to or above 2 gives 0.0.

{"Molecule": "Cc1ccc2c(c1)C(NC(=O)CN1CCCCC1)CO2 (stereo unspecified)", "Class": 0.0}
{"Molecule": "CCN(CC)CC(=O)NC1COc2ccc(C)cc21 (stereo unspecified)", "Class": 0.0}
{"Molecule": "O=C(CN1CCCC1)NC1COc2ccc(Cl)cc21 (stereo unspecified)", "Class": 0.0}

Q: Please indicate whether the reported logP of CCCCN(CCCC)CC(=O)NC1COc2cc(OC)ccc21 (stereo unspecified) is strictly below 2.
Ans: 0.0

Q: Take the molecule COc1ccc2c(c1)OCC2NC(=O)CN1CCOCC1 (stereo unspecified) and say whether its logP is less than 2.
Ans: 1.0

Q: Does this molecule meet the criterion logP < 2? O=C(CN1CCCC1)NC1COc2ccccc21 (stereo unspecified)
Ans: 1.0
